System: T47D
assay.details: NCI tumour cell line growth inhibition, 48 h
Active and inactive are the calls of the source. Cut-off read from the data, not from the text of the source: active = GI50 up to about 1.1 µM and inactive = higher.

compound	GI50
CCn1cc(C(=O)O)c(=O)c2cc(F)c(N3CCN(CN4C(=O)/C(=N\NC(=O)c5ccncc5)c5cc(Cl)ccc54)CC3)cc21	29.4 µM (inactive)
C/C(=C/CO[Si](C)(C)C(C)(C)C)C(=O)N(C)c1ccccc1I	14.8 µM (inactive)
Cc1ccc2nc(SCC(=O)N/N=C3\C(=O)Nc4ccccc43)n(-c3ccccc3)c(=O)c2c1	15.5 µM (inactive)
CCOC(=O)Cc1csc2[n+]1C(=O)/C(=C/c1cccc(OC)c1O)S2	36.3 µM (inactive)
CC1OC2OC3C(OCC(O)C3O)OC(=O)[C@]34CCC(C)(C)CC3C3=CCC5[C@@]6(C)C[C@H](O)[C@H](OC7OC(CO)C(O)C(O)C7OC7OCC(OC(=O)CC(C)(O)CC(=O)OC1C(O)C2O)C(O)C7O)[C@@](C)(CO)C6CC[C@@]5(C)[C@]3(C)CC4 (stereo partly drawn)	4.98 µM (inactive)
CN(/N=C/c1ccc(OCc2cccc(COc3ccc(C=O)cc3)n2)cc1)c1cnn(-c2ccc(Cl)cc2Cl)c(=O)c1Cl	> 100 µM (inactive)
O=C1C(NCCc2ccc(O)c([N+](=O)[O-])c2)=CC(=O)c2[nH]cnc21	18.5 µM (inactive)
COc1cccc(-c2nc(-c3cnccn3)n(COCCO)n2)c1	> 100 µM (inactive)
